method: Pharmacokinetics of AS and DHA in rat plasma after single and multiple intravenous AS injections (automated blood sampler, LC-MS/MS);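 further: blood drawn through a jugular vein catheter by an automated sampling system, plasma drug levels measured by LC-MS/MS with positive electrospray ionization against standard curves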
Assay type: in vivo, Sprague-Dawley rats
experimental_setup: male, Sprague-Dawley, rat, plasma, iv, 20 mg/kg, Chinese formulation (AS/NaHCO3), 20 mg/kg i.v. daily for 3 days, male rats, Period 1, Day 1
property_name: clearance (mL/min/kg)

INSERT INTO measurements (compound, property_name, observed_measurement) VALUES
  ('C[C@H]1[C@H](OC(=O)CCC(=O)O)O[C@@H]2O[C@@]3(C)CC[C@H]4[C@H](C)CC[C@@H]1[C@@]24OO3 [AS, artesunate]', 'clearance', 380);
